# TESTED_ON: h-GABA-A α5β3γ2 (Homo sapiens (Human), UniProt P18507+P31644)
# Sequence (P31644 32-462): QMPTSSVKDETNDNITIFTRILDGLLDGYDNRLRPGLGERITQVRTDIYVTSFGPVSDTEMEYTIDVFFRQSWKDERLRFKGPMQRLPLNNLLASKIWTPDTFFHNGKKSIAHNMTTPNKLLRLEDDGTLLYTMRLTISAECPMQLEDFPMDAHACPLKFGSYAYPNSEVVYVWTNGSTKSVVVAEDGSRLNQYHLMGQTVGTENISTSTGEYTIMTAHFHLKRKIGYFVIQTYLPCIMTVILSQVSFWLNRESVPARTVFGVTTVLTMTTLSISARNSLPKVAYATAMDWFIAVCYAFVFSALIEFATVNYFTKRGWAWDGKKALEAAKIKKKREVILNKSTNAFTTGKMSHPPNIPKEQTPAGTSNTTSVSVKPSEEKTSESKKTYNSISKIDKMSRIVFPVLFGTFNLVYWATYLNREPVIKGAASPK
# Sequence (P28472 26-473 partner): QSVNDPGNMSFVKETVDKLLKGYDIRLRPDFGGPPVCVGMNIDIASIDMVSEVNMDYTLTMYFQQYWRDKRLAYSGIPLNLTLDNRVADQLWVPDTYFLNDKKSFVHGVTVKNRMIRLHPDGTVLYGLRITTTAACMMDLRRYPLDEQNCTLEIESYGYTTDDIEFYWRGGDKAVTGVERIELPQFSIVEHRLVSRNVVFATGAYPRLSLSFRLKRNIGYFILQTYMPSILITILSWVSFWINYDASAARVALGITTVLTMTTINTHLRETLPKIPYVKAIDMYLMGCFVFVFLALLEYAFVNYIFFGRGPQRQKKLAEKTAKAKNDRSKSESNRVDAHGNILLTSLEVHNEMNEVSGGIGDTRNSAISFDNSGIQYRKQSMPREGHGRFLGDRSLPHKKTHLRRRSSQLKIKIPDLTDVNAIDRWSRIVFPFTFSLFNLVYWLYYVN
# Sequence (P18507 40-475): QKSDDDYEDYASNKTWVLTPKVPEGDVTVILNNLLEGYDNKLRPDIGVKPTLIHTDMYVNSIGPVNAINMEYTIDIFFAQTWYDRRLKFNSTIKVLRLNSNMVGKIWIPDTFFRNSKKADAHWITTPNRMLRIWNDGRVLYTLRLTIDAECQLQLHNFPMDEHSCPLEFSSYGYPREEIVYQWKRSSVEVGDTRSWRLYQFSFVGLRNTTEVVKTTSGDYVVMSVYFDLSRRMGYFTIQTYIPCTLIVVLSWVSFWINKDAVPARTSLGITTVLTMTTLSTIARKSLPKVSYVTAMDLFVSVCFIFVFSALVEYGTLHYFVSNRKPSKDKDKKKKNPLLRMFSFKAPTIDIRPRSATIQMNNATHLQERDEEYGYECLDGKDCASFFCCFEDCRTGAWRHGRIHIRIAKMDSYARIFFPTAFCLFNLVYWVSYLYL
# ASSAY_NAME: Two-electrode voltage clamp electrophysiology in Xenopus oocytes expressing GABAA receptors, modulation of GABA EC20 current
# Type: cell-based
# ASSAY_SETUP: % modulation of GABA EC20 = 100*(Fold increase−1), Xenopus oocytes
Kindly return yes if reported Efficacy (GABA) % is no lower than 70%; return no if it is lower.

Cc1ccc(-c2noc(C)c2COc2ccc(C(=O)NC3CN(C(C)C)C3)nn2)cn1 :: no
Cc1ccc(-c2noc(C)c2COc2ccc(C(=O)N[C@H]3C[C@H](OCC(F)F)C3)nn2)cn1 :: no
Cc1ccc(-c2noc(C)c2COc2ccc(C(=O)N3CC(C#N)C3)nn2)cn1 :: no
Cc1ccc(-c2noc(C)c2COc2ccc(C(=O)N3CC4(COC4)C3)nn2)cn1 :: no
CCC[C@@H](CO)NC(=O)c1ccc(OCc2c(-c3ccc(C4CC4)nc3)noc2C)nc1 :: yes

Ask | # bool: Efficacy (GABA) % of `Cc1ccc(-c2noc(C)c2COc2cc3c(cn2)C(=O)N(C2CCOCC2)C3)cn1` >= 70%
Reply | no

Ask | Threshold query (Efficacy (GABA) % >= 70%) on `Cc1ncc(-c2noc(C)c2COc2ccc(C(=O)NC3CCOCC3)cn2)cc1F`
Reply | no

Ask | Evaluate `Cc1ccc(-c2noc(C3CC3)c2COc2ccc(C(=O)NC3CCOCC3)cn2)cn1` : Efficacy (GABA) % at minimum 70%?
Reply | yes

Ask | Hi, just wondering whether `Cc1ccc(-c2noc(C)c2COc2ccc(C(=O)NC(C)(C)CCO)nn2)cn1` shows Efficacy (GABA) % of 70% or higher.
Reply | yes

Ask | Is it the case that `Cc1ccc(-c2noc(C)c2COc2ccc(C(=O)N[C@H]3CCCC(F)(F)[C@@H]3O)cn2)cn1` has Efficacy (GABA) % reaching or exceeding 70%?
Reply | yes

Ask | Has `CCC[C@@H](CO)NC(=O)c1ccc(OCc2c(-c3ccc(C)nc3)noc2C)nc1` a recorded Efficacy (GABA) % greater than or equal to 70%?
Reply | yes

Ask | Please check the record `Cc1ccc(-c2noc(C)c2COc2ccc(C(=O)N[C@@H]3CCS(=O)(=O)C3)cn2)cn1` and state if its Efficacy (GABA) % is at or above 70%.
Reply | yes

Ask | Please tell me: is the molecule `Cc1onc(-c2ccc(Cl)nc2)c1COc1ccc(C(=O)NC2(C)COC2)nn1` at or over 70% in terms of Efficacy (GABA) %?
Reply | no

Ask | Kindly determine if Efficacy (GABA) % recorded for `Cc1ccc(-c2noc(C)c2COc2ccc(C(=O)N[C@H]3C[C@@H](OC4CC4)C3)nn2)cn1` is above or exactly 70%.
Reply | no

Where do the numbers come from? From patent US20240279218A1.
